measurement protocol: Trough level in BALB/c mouse at 25 mg/kg, ip after 6 hrs
Type: ADME, organism-based
reported conditions: in vivo
measured metric: concentration at 6 h

• O=C(O)c1cn(C2CC2)c2cc(N3CCNCC3)c(F)cc2c1=O [CIPROFLOXACIN] = 1000 ng/mL
• C[C@H]1c2cccc(O)c2C(=O)C2=C(O)[C@]3(O)C(=O)C(C(N)=O)=C(O)[C@@H](N(C)C)[C@@H]3[C@@H](O)[C@@H]21.O [DOXYCYCLINE] = 1330 ng/mL

----------
Some compounds, each annotated with its measured concentration at 6 h.
measurement protocol: Trough level in BALB/c mouse at 100 mg/kg, ip after 6 hrs
Assay type: ADME, organism-based
reported conditions: in vivo
measured metric: concentration at 6 h

* O=C(O)c1cn(C2CC2)c2cc(N3CCNCC3)c(F)cc2c1=O | 1670 ng/mL
* C[C@H]1c2cccc(O)c2C(=O)C2=C(O)[C@]3(O)C(=O)C(C(N)=O)=C(O)[C@@H](N(C)C)[C@@H]3[C@@H](O)[C@@H]21.O | 6000 ng/mL
